procedure details: small-molecule binders of probe aInhba, primary screen, biochemical, small-molecule microarray, 635/667 nm fluorescence (AID 1148);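 note: score merges 667nm spot fluorescence with signal-to-noise for antibody binding to printed compounds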
stated conditions: higher = more signal
A collection of compounds and their measured composite z-score
Respond using a number only.

Record excerpt, results attached:
* CO[C@@H]1COC(=O)[C@H](C)NC(=O)CC=C[C@@H](C)[C@H](NS(=O)(=O)c2ccc(C)cc2)COC(=O)CC=C[C@@H]1C | -0.145
* CC[C@@H]1C=C(C(=O)O)[C@H](c2ccccc2)N1S(=O)(=O)c1ccc([N+](=O)[O-])cc1 | -0.128
* CCN1C(C)=C(C(=O)OC)[C@@H](c2ccccc2)N2C(=O)[C@](O)(C(=O)OC)[C@@H](c3ccccc3)C(C(C)=O)=C12 | -0.177
* COc1cccc([C@@H]2[C@@H](C)CC[C@H]3C(=O)N(C)[C@@H](C(C)C)C(=O)N23)c1 | -0.0523
* O=C1C2C=CC(C(O)C#Cc3ccccc3)N(Nc3ccccc3)C2C(=O)N1c1ccccc1 (stereo not given) | 0.0659

Exam item: Entry `CCOC(=O)C[C@H]1[C@H](OC(=O)Cc2ccc3c(c2)OCO3)[C@@H](NC(=O)CC(C)C)c2cc(OCCCO)ccc2N1C(=O)c1ccccc1` : reported composite z-score = ?
Marked response: 0.126

Exam item: composite z-score for `COC(=O)[C@@]1(Cc2ccccc2CN=[N+]=[N-])N=C(c2ccc(OCCCO)cc2)O[C@H]1c1ccccc1N=[N+]=[N-]` ?
Marked response: -0.0645

Exam item: Returns the measured composite z-score for the input compound. Input: `CN(C)C(=O)[C@@]1(Cc2ccccc2N=[N+]=[N-])N=C(c2ccc(OCCCO)cc2)O[C@H]1c1ccccc1CN=[N+]=[N-]`
Marked response: 0.372

Exam item: Fill in the blank: the reported composite z-score of `CCCCCCc1nc(C2CC2)c(C)c2c1[Si](C(C)C)(C(C)C)OC2` is ____.
Marked response: -0.0494

Exam item: For the compound `C=CC[C@@]12N=C(c3ccc(OCCCO)cc3)O[C@@H]1c1ccccc1CN(Cc1ccccc1)C2=O` , what composite z-score is on record?
Marked response: 0.174

Exam item: Dear colleague, I am looking for the recorded composite z-score of the following compound: `COC(=O)[C@H]1[C@@H]2COc3ccccc3[C@H]2N[C@H]1C(=O)OC`
Marked response: -0.118

Exam item: Record request: composite z-score value, item `CCOC(=O)C1=C[C@@H](c2ccccc2)N(S(=O)(=O)c2ccc(C)cc2)[C@H]1c1ccc(F)cc1`
Marked response: 0.225

Exam item: Dear colleague, I am looking for the recorded composite z-score of the following compound: `O=C1O[C@H](c2ccccc2)[C@H](c2ccccc2)N2[C@H]1[C@@H](C(=O)NC[C@H](O)c1ccccc1)[C@]1(C(=O)Nc3ccc(C#CC4(O)CCCCCC4)cc31)[C@H]2c1ccc(OCCO)cc1`
Marked response: 0.0082

Exam item: # get_value(readout='composite z-score', item= `COC(=O)[C@@]1(Cc2ccc(OC)cc2)[C@H]2c3cc(C(=O)N(C)C)n(CCc4ccc(OC)c(Br)c4)c3C[C@H]2CN1C(=O)c1ccccc1` )
Marked response: 0.993

Exam item: Which composite z-score is listed for `O=[N+]([O-])c1ccc(C[n+]2ccc3ccc(O)cc3c2)o1` ?
Marked response: 0.0857

----------
System: Sonic hedgehog protein (Shh)
procedure details: small-molecule binders of Shh protein, primary screen, biochemical, small-molecule microarray, 635/667 nm fluorescence (AID 1151);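 note: Shh protein binding to compounds spotted on small-molecule microarray slides; score combines spot fluorescence intensity with signal-to-noise across triplicate slides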
stated conditions: small-molecule microarray binding, 635 nm fluorescence; higher = more signal
Reported composite z-score by item:
// no unit string in output, number only

* COCCOC(=O)N1C(=O)[C@@]2(c3cc(C#CCNC(N)=O)ccc31)[C@H](c1ccc(OCCO)cc1)N1[C@H](c3ccccc3)[C@H](c3ccccc3)OC(=O)[C@H]1[C@@H]2C(=O)Nc1nc2ccccc2s1 | 1.6
* Cc1ccc(S[C@]2(C(=O)O)CC(=O)N(Cc3cc(C(F)(F)F)cc(C(F)(F)F)c3)[C@@H]2c2ccc(CO)cc2I)cc1 | 0.42
* C=CC[C@]1(C(=O)O)N=C(c2ccc(OCCCO)cc2)O[C@H]1c1ccccc1N=[N+]=[N-] | -0.373
* [N-]=[N+]=Nc1ccccc1C[C@@]1(C(=O)N2CCOCC2)N=C(c2ccc(OCCCO)cc2)O[C@@H]1c1ccccc1N=[N+]=[N-] | 0.174
* CC(=O)Nc1ccc([C@H]2[C@H](C)CC[C@H]3C(=O)N4[C@@H](CC[C@@H](C)[C@@H]4c4ccc(NC(C)=O)cc4)C(=O)N32)cc1 | 1.34
* C=C(CCCC)C(=O)CC[C@@H](OC(C)=O)c1ccccc1OCCO | 0.276

Let's switch to this compound now.
Exam item: For the compound `CCCC=C(CCC)[C@@H](NS(=O)(=O)c1ccc(C(F)(F)F)cc1)c1ccc(-c2ccccc2)cc1` , what composite z-score is on record?
Marked response: 0.618

----------
procedure details: S. cerevisiae RM11-1a growth modifiers, primary screen, strain RM11-1a, OD600, basal, 24 h (AID 1177);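 note: cultures grown under basal conditions with no added stressor; test concentration not given here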
stated conditions: OD600, 24 h, higher = more signal, called active from +8 up or from −8 down
Tick TRUE if z-score is 0.4 or greater. Tick FALSE if z-score is less than 0.4.

# count of solved cases: 5
- COc1ccc([Si](C)(C)[C@H]2[C@H](CC(=O)N3Cc4ccccc4C[C@H]3CO)O[C@@]3(C(=O)N(Cc4cccc(N5CCOC5=O)c4)c4ccccc43)[C@@H]2C)cc1: TRUE
- CO[C@@H]1COC(=O)[C@@H]2CCCN2C(=O)CC=C[C@@H](C)[C@H](OC)COC(=O)[C@@H]2CCCN2C(=O)CC=C[C@H]1C: FALSE
- COc1ccc([Si](C)(C)[C@H]2[C@H](CC(=O)N(CCO)Cc3ccccc3)O[C@@]3(C(=O)N(C)c4ccccc43)[C@@H]2C)cc1: FALSE
- O=C1O[C@H](c2ccccc2)[C@H](c2ccccc2)N2[C@H]1[C@@H](C(=O)Nc1nc3ccccc3s1)[C@]1(C(=O)Nc3ccc(C#CC4(O)CCCCCC4)cc31)[C@H]2c1ccc(O)cc1: FALSE
- COCCOC(=O)N1C(=O)[C@@]2(c3cc(C#CC4=CCCCC4)ccc31)[C@H](c1ccc(O)cc1)N1[C@H](c3ccccc3)[C@H](c3ccccc3)OC(=O)[C@H]1[C@@H]2C(=O)N1CCCCCCC1: FALSE

Exam item: Hi, just wondering whether `CCCC/C=C/[C@H]([C@@H](O)Cc1ccccc1)N(CC#Cc1ccccc1)Cc1ccccc1Br` shows z-score of 0.4 or higher.
Marked response: TRUE

Exam item: Answer whether z-score of `Cc1ccc([C@@H]2CC=C(C(=O)O)[C@H](c3ccccc3)N2S(=O)(=O)c2ccc(C)cc2)cc1` is greater than or equal to 0.4.
Marked response: FALSE

Exam item: Determine whether this compound has z-score no lower than 0.4: C=CCC(OC(C)=O)[C@@H]1[C@@H](N(Cc2ccc(-c3ccccc3)cc2)C(=O)c2ccc(-c3ccccc3)cc2)c2cc(OCCCO)ccc2N1C(=O)Cc1ccc(OC)cc1 (stereo partly drawn)
Marked response: FALSE

Exam item: Evaluate `CCCC=C(CCC)[C@@H](NC(=O)c1ccc(C(F)(F)F)cc1)c1ccccc1` : z-score at minimum 0.4?
Marked response: TRUE

Exam item: Please tell me: is the compound `C=C(CCCC)/C(=C/C[C@@H](OC(=O)c1ccncc1)c1ccc(CO)o1)c1cnc2ccccc2c1` at or over 0.4 in terms of z-score?
Marked response: FALSE

Exam item: Confirm if z-score reported for the compound O=C1C2C=CC(C(O)Cc3ccccc3)N(Nc3ccc([N+](=O)[O-])cc3)C2C(=O)N1c1ccccc1 (stereo not drawn) is 0.4 or above.
Marked response: FALSE

----------
procedure details: MM1S myeloma cell viability, profiling panel, resazurin fluorescence, basal, 24 h, PK04 Diversity Set (AID 1174);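 note: MM1S multiple myeloma cell line; test concentration not given here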
stated conditions: higher = more signal, called active from +8 up or from −8 down
Form field: z-score (one value per entry).
Enter a number only.

These solved cases illustrate the format of a correct answer.
• CCCC[C@@H]1C[C@H]1[C@@H](NC(=O)c1ccccc1)c1ccccc1C(F)(F)F = -0.159
• COC(=O)C[C@H]1O[C@]2(C(=O)N(C)c3ccccc32)[C@@H](C)[C@@H]1[Si](C)(C)c1ccc(OC)cc1 = 0.504
• CN(C)CCCC[C@@H]1NC(=O)[C@@H]2C[C@H](C(=O)NCCCCCNC(=O)CS)[C@H](c3ccc(O)cc3)N2C1=O = 1.01

Exam item: Query: z-score; subject: `CCC(=O)[C@]12O[C@@]3([C@@H]4C(=O)OCC[C@@H]41)N(Cc1ccccc1)C(C)=C(C(=O)OC)[C@@H](c1ccccc1)N3C2=O`
Marked response: 0.83

Ref: PubChem BioAssay
